Value source: patent US10175256B2

# measured.target: Mfsd2a (Mus musculus, UniProt Q9DA75)
# Sequence (Q9DA75 whole entry): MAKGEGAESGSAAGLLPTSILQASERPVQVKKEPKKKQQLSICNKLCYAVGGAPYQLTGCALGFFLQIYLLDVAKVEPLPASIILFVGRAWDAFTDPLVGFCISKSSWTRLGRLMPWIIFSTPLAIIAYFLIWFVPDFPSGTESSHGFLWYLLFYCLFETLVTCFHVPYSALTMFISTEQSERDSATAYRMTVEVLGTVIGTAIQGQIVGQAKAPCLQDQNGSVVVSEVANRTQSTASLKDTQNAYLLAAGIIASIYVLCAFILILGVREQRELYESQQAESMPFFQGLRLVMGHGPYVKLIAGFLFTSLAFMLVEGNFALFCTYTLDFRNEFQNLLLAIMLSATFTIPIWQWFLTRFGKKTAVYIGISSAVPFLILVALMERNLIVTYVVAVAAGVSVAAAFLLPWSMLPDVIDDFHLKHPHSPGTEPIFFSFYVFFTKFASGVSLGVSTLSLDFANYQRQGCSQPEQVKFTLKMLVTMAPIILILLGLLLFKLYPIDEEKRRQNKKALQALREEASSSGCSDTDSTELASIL
# run.description: Competition transport assay with LPC-[3H]palmitate as ligand
# Type: cell-based
# Set-up: expressed in transfected cells; host or cells: HEK293
# stated.conditions: 25 μM LPC-[3H]palmitate, 10-fold molar excess (250 μM) competitor, 30 mins (PAF 15 mins)
# Protocol: Briefly, 24 h post transfection of HEK293 cells with pcDNA3.1Mfsd2a (WT), pcDNA3.1Mfsd2aD92A (D92A), pcDNA3.1Mfsd2aD96A, or pcDNA3.1 (mock) plasmids were washed once with serum-free DMEM medium before addition of a mixture of 25 μM radiolabeled LPC-palmitate and 250 μM cold competitors, which were dissolved in 12% BSA. Total BSA concentration was kept constant in samples with or without cold competitors. Assays were performed at 37° C. for 30 mins. […]
readout.name: competition for transport/uptake of LPC-[3H]palmitate

                                   compound             value
0  CCCCCCCCCCCCC/C=C/[C@@H](O)[C@@H](N)COP(=O)(O)O [sphingosine-1-phosphate]  not a competitor
1     C[N+](C)(C)CCOP(=O)([O-])OC[C@H](O)CO  not a competitor
